# system: Urotensin-2 receptor (Rattus norvegicus)
# Sequence (P49684 whole entry): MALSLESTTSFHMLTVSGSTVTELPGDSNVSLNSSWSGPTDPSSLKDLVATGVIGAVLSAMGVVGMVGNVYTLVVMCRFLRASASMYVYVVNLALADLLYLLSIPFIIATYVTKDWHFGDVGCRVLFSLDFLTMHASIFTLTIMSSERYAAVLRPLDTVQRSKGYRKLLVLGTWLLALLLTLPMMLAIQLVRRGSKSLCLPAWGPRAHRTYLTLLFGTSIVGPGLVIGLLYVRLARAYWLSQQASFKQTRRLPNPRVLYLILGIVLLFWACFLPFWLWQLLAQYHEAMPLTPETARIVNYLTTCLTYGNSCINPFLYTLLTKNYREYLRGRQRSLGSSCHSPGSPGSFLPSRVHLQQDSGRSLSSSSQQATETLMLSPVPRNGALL
# assay-remarks: Allosteric modulation of urotensin-2 receptor in Sprague-Dawley rat thoracic aorta assessed as change in URP-mediated aortic ring contraction by measuring URP pEC50 at 10^-5M preincubated for 15 mins followed by URP addition (Rvb = 8.09 +/- 0.03 No_unit)
The label is yes (1) for EC50 below 8 nM and no (0) for EC50 equal to or exceeding 8 nM.

Would you please look over these solved cases?
smiles-string: NCCCN1N=C(C=Cc2ccc(O)cc2)c2ccccc2N(Cc2ccc3ccccc3c2)C1=O
classification: no (0)
//
smiles-string: CNCCCCN1N=C(CCc2nc3ccccc3s2)c2ccccc2N(Cc2cccc3ccccc23)C1=O
classification: yes (1)
//
smiles-string: NCCCCN1N=C(CCc2nc3ccccc3s2)c2ccccc2N(Cc2ccc3ccccc3c2)C1=O
classification: yes (1)
//
smiles-string: COc1ccc(C=CC2=NN(CCCCN)C(=O)N(Cc3ccc(-c4ccccc4)cc3)c3ccccc32)cc1
classification: yes (1)
//
smiles-string: CNCCCCN1N=C(CCc2nc3ccccc3s2)c2ccccc2N(Cc2ccc(-c3ccccc3)cc2)C1=O
classification: no (0)
//
smiles-string: NCCCCN1N=C(C=Cc2ccc(O)cc2)c2ccccc2N(Cc2ccc(-c3ccccc3)cc2)C1=O
classification: no (0)
//
smiles-string: COc1ccc(CCC2=NN(CCCN)C(=O)N(Cc3ccc4ccccc4c3)c3ccccc32)cc1
classification: yes (1)
//
smiles-string: CNCCCCN1N=C(CCc2nc3ccccc3s2)c2ccccc2N(Cc2ccc3ccccc3c2)C1=O
classification: yes (1)

Q) # check: EC50 < 8 nM for "NCCCCN1N=C(CCc2nc3ccccc3s2)c2ccccc2N(Cc2ccc(-c3ccccc3)cc2)C1=O"
A) yes (1)

Q) Hi there! Is EC50 for "COc1ccc(CCC2=NN(CCCCN)C(=O)N(Cc3ccc4ccccc4c3)c3ccccc32)cc1" below 8 nM, do you know?
A) yes (1)

* * *

# system: Urotensin-2 receptor (Rattus norvegicus)
# Sequence (P49684 whole entry): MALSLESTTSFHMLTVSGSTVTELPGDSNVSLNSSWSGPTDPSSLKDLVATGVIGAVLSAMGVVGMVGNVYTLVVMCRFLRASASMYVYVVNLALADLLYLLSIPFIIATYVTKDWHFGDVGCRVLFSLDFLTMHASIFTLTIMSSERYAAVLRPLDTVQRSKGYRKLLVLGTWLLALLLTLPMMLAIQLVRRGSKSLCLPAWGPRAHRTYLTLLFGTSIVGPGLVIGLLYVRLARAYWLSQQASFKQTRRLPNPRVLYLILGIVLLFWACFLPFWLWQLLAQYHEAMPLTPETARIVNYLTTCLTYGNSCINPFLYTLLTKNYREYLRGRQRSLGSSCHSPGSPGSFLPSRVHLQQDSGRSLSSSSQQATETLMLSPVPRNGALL
# assay-remarks: Allosteric modulation of urotensin-2 receptor in Sprague-Dawley rat thoracic aorta assessed as change in human urotensin-2-mediated aortic ring contraction by measuring urotensin-2 pEC50 at 10^-5M preincubated for 15 mins followed by urotensin-2 addition (Rvb = 8.61 +/- 0.05 No_unit)
quantity-kind: pEC50
Would you please state pEC50, meaning minus log10 of the concentration in mol/L, as a bare number?

Some solved cases for reference:
smiles-string: NCCCCN1N=C(CCc2ccc(O)cc2)c2ccccc2N(Cc2ccc(-c3ccccc3)cc2)C1=O
readout-value: 8.46
//
smiles-string: NCCCCN1N=C(CCc2nc3ccccc3s2)c2ccccc2N(Cc2ccc3ccccc3c2)C1=O
readout-value: 8.52
//
smiles-string: COc1ccc(C=CC2=NN(CCCCN)C(=O)N(Cc3ccc4ccccc4c3)c3ccccc32)cc1
readout-value: 8.44

Q) // returns reported pEC50 for input "COc1ccc(CCC2=NN(CCCCN)C(=O)N(Cc3ccc4ccccc4c3)c3ccccc32)cc1"
A) 8.30

Q) Reported pEC50 for "COc1ccc(CCC2=NN(CCCCN)C(=O)N(Cc3ccc(-c4ccccc4)cc3)c3ccccc32)cc1" : what is it?
A) 8.43

* * *

# system: Urotensin-2 receptor (Rattus norvegicus, UniProt P49684)
# assay-remarks: Allosteric modulation of urotensin-2 receptor in Sprague-Dawley rat thoracic aorta assessed as change in human urotensin-2-mediated aortic ring contraction by measuring urotensin-2 pEC50 at 10^-5M preincubated for 15 mins followed by urotensin-2 addition (Rvb = 8.61 +/- 0.05 No_unit)
Quick reference for pEC50 among some compounds
Please treat pEC50 as minus the base-10 logarithm of the molar concentration.

Here are 2 compounds together with their reported answers.
smiles-string: COc1ccc(CCC2=NN(CCCN)C(=O)N(Cc3ccc(-c4ccccc4)cc3)c3ccccc32)cc1
system: Urotensin-2 receptor (Rattus norvegicus, UniProt P49684)
pEC50: 8.49

smiles-string: NCCCN1N=C(CCc2ccc(O)cc2)c2ccccc2N(Cc2ccc(-c3ccccc3)cc2)C1=O
system: Urotensin-2 receptor (Rattus norvegicus, UniProt P49684)
pEC50: 8.35

Alright, here's another compound for you.
Q) # lookup: pEC50 of "NCCCCN1N=C(CCc2ccc(O)cc2)c2ccccc2N(Cc2ccc3ccccc3c2)C1=O"
A) 8.36
